Tested on: Staphylococcus aureus
Experimental context: ASSAY_TEST Inhibition of Bacterial Growth; detection method Absorption (OD600); MEDIA CAMHB; plate type 384well; NBS; CORNING #3640; time 18 hr
Description: Antibacterial activity against Staphylococcus aureus MRSA ATCC 43300 (CO-ADD:GP_020); MIC in CAMBH media, using NBS plates, by OD(600)
Please respond with reported MIC for every item in the list.

Check out these entries, answers already filled in.
CC(=O)NC[C@H]1CN(c2ccc(N3CCSCC3)c(F)c2)C(=O)O1 :: 5 µM
CC(C)/N=c1\cc2n(-c3ccc(Cl)cc3)c3ccccc3nc-2cc1Nc1ccc(Cl)cc1 :: 20 µM
CC(=O)N1CCN(c2ccc(OCC3COC(Cn4ccnc4)(c4ccc(Cl)cc4Cl)O3)cc2)CC1 (stereo unspecified) :: >20 µM
CC(=O)Oc1ccccc1C(=O)Nc1ncc([N+](=O)[O-])s1 [NITAZOXANIDE] :: >20 µM
O=c1[nH]cnc2c1ncn2[C@H]1CC[C@@H](CO)O1 :: >20 µM

Hi! Can you tell me MIC for each of these molecules?
1. Nc1nc(=O)[nH]cc1F
2. C[C@H]1COc2c(N3CCN(C)CC3)c(F)cc3c(=O)c(C(=O)O)cn1c23.C[C@H]1COc2c(N3CCN(C)CC3)c(F)cc3c(=O)c(C(=O)O)cn1c23.O
3. CO[C@@]1(NC(=O)Cc2cccs2)C(=O)N2C(C(=O)O)=C(COC(N)=O)CS[C@@H]21
4. OC(Cn1cncn1)(Cn1cncn1)c1ccc(F)cc1F

Solution:
1: >20 µM; 2: 2.5 µM; 3: >20 µM; 4: >20 µM

Hi! Can you tell me MIC for each of these molecules?
1. CCC(C)n1ncn(-c2ccc(N3CCN(c4ccc(OCC5COC(Cn6cncn6)(c6ccc(Cl)cc6Cl)O5)cc4)CC3)cc2)c1=O (stereo unspecified)
2. COc1cc(Cc2cnc(N)nc2N)cc(OC)c1OC

Solution:
>20 µM
5 µM

* * *

Please respond with reported MIC for every item in the list.
System: Pseudomonas aeruginosa
Protocol text: microbe, parasite or virus in culture
Experimental context: ATCC 27853, 18 h, ASSAY_TEST Inhibition of Bacterial Growth, detection method Absorption (OD600), MEDIA CAMHB, plate type 384well, NBS, CORNING #3640
Description: Antibacterial activity against Pseudomonas aeruginosa ATCC 27853 (CO-ADD:GN_042); MIC in CAMBH media using NBS plates, by OD(600)

Check out these entries, answers already filled in.
O=C(CCCC(F)(F)F)N1CCC(c2nc(-c3nccs3)no2)CC1 :: > 20 µM
CCN1CCN(Cc2nc3ccc([N+](=O)[O-])cc3c(=O)n2-c2ccccc2F)CC1 :: > 20 µM
CCN(CC)CCn1c(=N)n(CC(O)COc2ccc(Cl)cc2Cl)c2ccccc21 (stereo not given) :: 20 µM
O=C(NO)C1(CS(=O)(=O)c2ccc(Oc3ccc(Cl)cc3)cc2)CCOCC1 :: > 20 µM
C[Si]1(C)CCN(Cc2cc(-c3ccc(Cl)cc3)n(-c3ccc(Cl)cc3)n2)CC1 :: > 20 µM
CCC(C)NCC(O)Cn1c2ccc(Cl)cc2c2cc(Cl)ccc21 (stereo not given) :: > 20 µM
CSc1ccc2c(c1)C(N1CCN(C)CC1)Cc1ccccc1S2 (stereo not given) [METITEPINE] :: > 20 µM
O=C(O)COc1cccc2c1CC[C@](O)(COC(=O)N(c1ccccc1)c1ccccc1)C2 :: > 20 µM

Hi! Can you tell me MIC for each of these molecules?
1. Nc1ccc(-c2nc3cc(C(F)(F)F)ccc3n2C23CC4CC(CC(C4)C2)C3)cc1
2. COc1ccccc1NC(=O)c1ccccc1Sc1ccc([N+](=O)[O-])cc1

Solution:
1: > 20 µM; 2: > 20 µM

* * *

Please respond with reported MIC for every item in the list.
System: Pseudomonas aeruginosa
Protocol text: Antibacterial activity against Pseudomonas aeruginosa PAO397 [PAO1 d(mexAB-oprM) d(mexCD-oprJ) d(mexEF-oprN) d(mexJKL) d(mexXY) d(opmH)] (CO-ADD:GN_211); MIC in CAMBH media using NBS plates, by OD(600)
Format: functional
Experimental context: ASSAY_TEST Inhibition of Bacterial Growth, detection method Absorption (OD600), MEDIA CAMHB, plate type 384well, CORNING #3640, time 18 hr

COc1cc(Cc2cnc(N)nc2N)c2c(c1OC)OC(C1CC1)C=C2 (centres undefined) :: 5 µM
CCOc1noc2cc(OCCC3CCN(c4ccc(C)nn4)CC3)ccc12 :: > 20 µM
Cc1nc2ccc(Oc3ccccc3)cc2c2c1CCN2CCc1ccccc1 :: 20 µM

Hi! Can you tell me MIC for each of these molecules?
1. Nc1nc(-c2ccccc2)nc2c1ncn2[C@@H]1O[C@H](COS(=O)(=O)NC(=O)c2ccccc2O)[C@@H](O)[C@H]1O
2. COc1ccc(C)cc1NC(=O)c1ccc(S(=O)(=O)N2CCCCC2)cc1

Solution:
1: > 20 µM; 2: > 20 µM

Hi! Can you tell me MIC for each of these molecules?
1. O=S(=O)(NCB(O)O)c1ccc(-c2nnn[nH]2)cc1C(F)(F)F
2. O=C1[C@H](CC[C@H](O)c2ccc(F)cc2)[C@@H](c2ccc(O)cc2)N1c1ccc(F)cc1
3. NC1(C(=O)O)CCP(=O)(O)CC1 (centres undefined)
4. C[C@H]1COc2c(N3CCN(C)CC3)c(F)cc3c(=O)c(C(=O)O)cn1c23.C[C@H]1COc2c(N3CCN(C)CC3)c(F)cc3c(=O)c(C(=O)O)cn1c23.O
5. FC(F)(F)Oc1ccc(Nc2ccc3cccc(Cl)c3n2)cc1
6. O=C(O)CSc1cc(NS(=O)(=O)c2cccc3cccnc23)c2ccccc2c1O
7. Cc1cc(C2CCCCC2)n(O)c(=O)c1

Solution:
["> 20 µM", "> 20 µM", "> 20 µM", "≤ 0.156 µM", "> 20 µM", "> 20 µM", "> 20 µM"]

* * *

Tested on: Pseudomonas aeruginosa
Protocol text: Antibacterial activity against Pseudomonas aeruginosa PAO397 [PAO1 d(mexAB-oprM) d(mexCD-oprJ) d(mexEF-oprN) d(mexJKL) d(mexXY) d(opmH)] (CO-ADD:GN_211); MIC in CAMBH media using NBS plates, by OD(600)
Assay type: functional
Experimental context: ASSAY_TEST Inhibition of Bacterial Growth, detection method Absorption (OD600), MEDIA CAMHB, plate type 384well, CORNING #3640, time 18 hr
Please respond with reported MIC for every item in the list.

Check out these entries, answers already filled in.
NC[C@H]1O[C@H](O[C@H]2[C@H](O)[C@@H](O[C@H]3O[C@H](CO)[C@@H](O)[C@H](N)[C@H]3O)[C@H](N)C[C@@H]2N)[C@H](N)C[C@@H]1O [TOBRAMYCIN] :: 1.25 µM
NC(=O)c1ccc(I)c([N+](=O)[O-])c1 [INIPARIB] :: > 20 µM
N[C@H]1CCC[C@H]1C(=O)O :: > 20 µM
CN1CCN(Cc2ccc(-c3cnc4[nH]cc(-c5ccc6[nH]ccc6c5)c4c3)cc2)CC1 :: > 20 µM
NC(=O)[C@@H]1CC[C@@H]2CN1C(=O)N2OS(=O)(=O)O :: > 20 µM

Hi! Can you tell me MIC for each of these compounds?
1. CCc1ccc(C2CC(C(F)(F)F)n3ncc(C(=O)NCc4ccc(OC)cc4)c3N2)cc1 (stereo unspecified)
2. C[C@H]1CC[C@@]2(O)C(C)(C)[C@@H]3CC[C@@]2(C)[C@H]1C3
3. CS(=O)(=O)c1ccc(Oc2ccc(Cl)cc2)cc1

Solution:
1. > 20 µM
2. > 20 µM
3. > 20 µM

* * *

Test system: Escherichia coli
Experimental context: ASSAY_TEST Inhibition of Bacterial Growth; detection method Absorption (OD600); MEDIA CAMHB; plate type 384well; NBS; CORNING #3640; time 18 hr
Description: Antibacterial activity against Escherichia coli ATCC 25922 (CO-ADD:GN_001); MIC in CAMBH media using NBS plates, by OD(600)
Value type: MIC

OC(Cn1cncn1)(Cn1cncn1)c1ccc(F)cc1F [FLUCONAZOLE] :: >20 µM
CC(=O)Oc1ccccc1C(=O)Nc1ncc([N+](=O)[O-])s1 [NITAZOXANIDE] :: >20 µM
Nc1nc(=O)[nH]cc1F [FLUCYTOSINE] :: >20 µM
CO[C@@]1(NC(=O)Cc2cccs2)C(=O)N2C(C(=O)O)=C(COC(N)=O)CS[C@@H]21 [CEFOXITIN] :: 5 µM
CC(=O)NC[C@H]1CN(c2ccc(N3CCSCC3)c(F)c2)C(=O)O1 [SUTEZOLID] :: >20 µM
CCC(C)n1ncn(-c2ccc(N3CCN(c4ccc(OCC5COC(Cn6cncn6)(c6ccc(Cl)cc6Cl)O5)cc4)CC3)cc2)c1=O (stereo unspecified) [ITRACONAZOLE] :: >20 µM
CC(C)/N=c1\cc2n(-c3ccc(Cl)cc3)c3ccccc3nc-2cc1Nc1ccc(Cl)cc1 [CLOFAZIMINE] :: >20 µM
O=c1[nH]cnc2c1ncn2[C@H]1CC[C@@H](CO)O1 [DIDANOSINE] :: >20 µM

Hi! Can you tell me MIC for each of these compounds?
1. CC(=O)N1CCN(c2ccc(OCC3COC(Cn4ccnc4)(c4ccc(Cl)cc4Cl)O3)cc2)CC1 (stereo unspecified) [KETOCONAZOLE]
2. COc1cc(Cc2cnc(N)nc2N)cc(OC)c1OC [TRIMETHOPRIM]

Solution:
[">20 µM", "2.5 µM"]
